Target or system Type-1 angiotensin II receptor (Homo sapiens); metric IC50; compiled from varied reports.
measured_property: IC50 (nM)

{"compound_string": "CCc1ccc(C(=O)NS(=O)(=O)c2ccccc2-c2ccc(Cn3c(CC)nc4ccc(NC(=O)N(C)C(C)C)cc4c3=O)c(F)c2)cc1", "study_system": "Type-1 angiotensin II receptor (Homo sapiens)", "measured_property": "IC50", "unit_annotation": "nM", "observed_value": 5.8}
{"compound_string": "CCCc1nc2c(C)cc(C(=O)NCCc3ccc(OC)c(OC)c3)cc2n1Cc1ccc(-c2ccccc2S(=O)(=O)Nc2onc(C)c2C)cc1", "study_system": "Type-1 angiotensin II receptor (Homo sapiens)", "measured_property": "IC50", "unit_annotation": "nM", "observed_value": 92}
{"compound_string": "CCCc1nc2c(C)cc(C(=O)NCc3ccc(OC)cc3)cc2n1Cc1ccc(-c2ccccc2C(=O)Nc2nnn[nH]2)cc1", "study_system": "Type-1 angiotensin II receptor (Homo sapiens)", "measured_property": "IC50", "unit_annotation": "nM", "observed_value": 550}
{"compound_string": "CCCc1nc(CN2CCN(c3ccccn3)CC2)c(C(=O)O)n1Cc1ccc(-c2ccccc2-c2nn[nH]n2)cc1F", "study_system": "Type-1 angiotensin II receptor (Homo sapiens)", "measured_property": "IC50", "unit_annotation": "nM", "observed_value": 0.9}
{"compound_string": "CCCc1nc2c(C)cc(C(=O)NCc3ccc(OC)cc3)cc2n1Cc1ccc(-c2ccccc2S(=O)(=O)Nc2onc(C)c2C)cc1", "study_system": "Type-1 angiotensin II receptor (Homo sapiens)", "measured_property": "IC50", "unit_annotation": "nM", "observed_value": 81}
{"compound_string": "CCCCc1ncc(/C=C2/C(=O)N(CCCC)C(=O)N2Cc2csc(C)n2)n1Cc1ccc(C2(C(=O)O)CCCC2)cc1", "study_system": "Type-1 angiotensin II receptor (Homo sapiens)", "measured_property": "IC50", "unit_annotation": "nM", "observed_value": 8}
{"compound_string": "CCCc1nc(CN2CCN(c3ncccn3)CC2)c(C(=O)O)n1Cc1ccc(-c2ccccc2-c2nn[nH]n2)cc1", "study_system": "Type-1 angiotensin II receptor (Homo sapiens)", "measured_property": "IC50", "unit_annotation": "nM", "observed_value": 2}
{"compound_string": "CCCc1nc2c(C)cc(C(=O)NCCN3CCOCC3)cc2n1Cc1ccc(-c2ccccc2C(=O)O)cc1", "study_system": "Type-1 angiotensin II receptor (Homo sapiens)", "measured_property": "IC50", "unit_annotation": "nM", "observed_value": 11}
{"compound_string": "CCCc1nc2c(C)cc(NC(=O)c3ccccc3)cc2n1Cc1ccc(-c2ccccc2C(=O)O)cc1", "study_system": "Type-1 angiotensin II receptor (Homo sapiens)", "measured_property": "IC50", "unit_annotation": "nM", "observed_value": 3.9}
{"compound_string": "CCCc1nc2c(C)cc(C(=O)NCCN3CCOCC3)cc2n1Cc1ccc(-c2ccccc2C(=O)Nc2nnn[nH]2)cc1", "study_system": "Type-1 angiotensin II receptor (Homo sapiens)", "measured_property": "IC50", "unit_annotation": "nM", "observed_value": 44}

1: CCCCCN(CCCCC)Cc1nc(CCC)n(Cc2ccc(-c3ccccc3-c3nnn[nH]3)cc2)c1C(=O)O
2: CCCc1nc(CC)c(C(=O)OCc2ccccc2C(=O)c2ccccc2)n1Cc1ccc(-c2ccccc2S(=O)(=O)NC(=O)OCCc2ccccc2)cc1F
3: CCCCc1ncc(/C=C2/C(=O)N(CCCC)C(=O)N2Cc2c[nH]c(C)n2)n1Cc1ccc(C(=O)OC)cc1
Thanks in advance: please rank these 3 entries by IC50, highest to lowest. As an answer, provide the labels arranged in the order called for.
3, 1, 2
